- System: SK-OV-3 ovarian
- ASSAY NAME: NCI-60 one-dose screen, 48 h (100 = growth as untreated, 0 = no growth, -100 = all killed)
- REPORTED CONDITIONS: 10 µM unless noted
This is part of a sample that, as a whole, favours compounds with a hit. Of some 83,000 tested, about 20% had one in any assay. The source made the active and inactive calls. The calls were made as follows: active = growth percent below 10; inactive = the rest.
Known growth of a selection of molecules

# MOLECULE, growth
measured = [
    ("CCCCC1=C(Br)C(=O)c2nc(C)ccc2C1=O", "95% (inactive)"),
    ("Fc1ccccc1-c1cnn2cc(-c3ccccc3)cnc12", "98% (inactive)"),
    ("COc1cc(CNC(=O)CCCC/C=C/C(C)C)ccc1OCc1cn(-c2ccc([N+](=O)[O-])cc2)nn1", "76.7% (inactive)"),
    ("C=C(C)[C@@H]1CC[C@]2(C(=O)O)CC[C@]3(C)[C@H](CC[C@@H]4[C@@]5(C)CCC(N)C(C)(C)[C@@H]5CC[C@]43C)[C@@H]12 (some centres undefined)", "106% (inactive)"),
    ("CC(=O)c1nn(-c2ccccc2)/c(=N/N=Cc2cn(-c3ccccc3)nc2-c2cc3ccccc3oc2=O)s1", "106% (inactive)"),
    ("CN1CCN(Cc2ccc(NC(=O)c3cccc(C#Cc4c(N)ncc5ccc(F)cc45)c3)cc2C(F)(F)F)CC1", "6.69% (active)"),
    ("Cc1ccc(C(=O)N(CCCN)[C@@H](c2nc3cc(Cl)ccc3c(=O)n2Cc2ccccc2)C(C)C)cc1", "38.6% (inactive)"),
    ("CN1C(=O)/C(=C/c2ccc(C(=O)Nc3ncc(Cc4ccccc4Cl)s3)cc2)SC1=S", "80.5% (inactive)"),
    ("COc1ccc(/C=C2\\COc3ccc(O)c(O)c3C2=O)c(OC)c1OC", "67% (inactive)"),
]

---

- System: IGROV1 ovarian
- ASSAY NAME: NCI-60 one-dose screen, 48 h (100 = growth as untreated, 0 = no growth, -100 = all killed)
- REPORTED CONDITIONS: 10 µM unless noted
This is part of a sample that, as a whole, favours compounds with a hit. Of some 83,000 tested, about 20% had one in any assay.
READOUT: growth (%)

# MOLECULE, RECORDED NUMBER
data = [
    ("O=C(/C=C/c1ccc([N+](=O)[O-])cc1)c1ccccc1", 87.3),
    ("NC(=O)c1c(NC(=O)/C=C/c2cccs2)sc2c1CCC(=O)C2", 24.4),
    ("COc1cc(-c2nc(SCCC(C)C)nc(Nc3ccc(F)cc3)c2C#N)cc(OC)c1OC", 69.6),
    ("CCOC(=O)C1=C(C)N=C2SC=C(c3ccc(F)cc3)N2[C@H]1c1cn(-c2ccccc2)nc1-c1ccc(Cl)cc1", 96.7),
    ("N#Cc1c(-c2cccc(F)c2)cc(-c2cccnc2)[nH]c1=O", 110),
    ("CN(C)CCN1C(=O)c2c(c3c4ccccc4n4c3c3c2c2ccccc2n3C2CC(O)C(O)C4(C)O2)C1=O (stereo not given)", 16.5),
    ("C=CCNC(=O)Cc1c(-c2ccc(OC)cc2)oc2c(OC)c3c(c(OC)c12)OCO3", 82.3),
    ("c1ccc(-c2cc(-c3cc(-c4ccccc4)on3)no2)cc1", 63.6),
    ("COc1cc(OC)cc(-c2ccc(-c3ccc(C(=N)N)cn3)s2)c1", 78.4),
    ("Nc1nc2ccccc2c2c(=O)c3ccc(Cl)cc3sc12", 102),
    ("CCN(CC)CC#CCOC(=O)[C@]1(C)CCC[C@]2(C)c3ccc(C(C)C)cc3CC[C@@H]12", 86.2),
    ("COc1cc(Nc2nc3ccccc3cc2C(=O)Nc2ccc(F)c(F)c2)cc(OC)c1OC", 30.8),
    ("O=C1C(Nc2ccc(Cl)cc2)=C(I)C(=O)c2ncccc21", -76.2),
    ("COc1ccc(C2=C(CN)C(O)NC(=NCC(=O)c3ccc4ccccc4c3)N2)cc1 (stereo not given)", 102),
    ("Cc1ccc(C(=O)c2ccc(CC(=O)N=Nc3c(O)[nH]c4ccc(OC(F)(F)F)cc34)n2C)cc1", 85.2),
    ("Cc1c(CC(=O)OCCO)cc(-c2ccc(Cl)cc2)n1-c1ccccc1", 104),
    ("N=C(N)c1ccc(-c2ccc(-c3ccc(Cl)c(Cl)c3)s2)cc1", -49.5),
    ("NC1=CC(=O)c2cccnc2C1=O", -53.7),
    ("C=C1C(=O)O[C@H]2[C@H]1CC/C(CNS(=O)(=O)c1ccc3ccccc3c1)=C\\CC[C@@]1(C)O[C@@H]21", 37.1),
    ("CSc1nnc(-c2cc3c([nH]c4ccccc43)c(-c3cccc(O)c3)n2)n1-c1ccc(C)cc1", 51),
]
